The sequences listed here are annotated with their apparent KD of MS2 coat protein.
Tested on: MS2 coat protein
Protocol: apparent KD of MS2 coat protein; designed switch direction (-1 OFF switch, 1 ON switch): -1; higher = weaker reporter binding
Test Conditions: Eterna round: R95; input ligand: none
Value Kind: apparent KD of MS2 coat protein (nM)

- AAGUACCGUCACGAUAGUGAUGGUACAACAAGUAGUGAAACAUGAGGAUCACCCAUGUCCUCAGUUGCUCGUCUUAU [Sensor 3 - 86] (puzzle: Sensor v3, turn-off variant 2): 298
- AAUAACAAGUAAGGUCCUAACAUGAGGAUCACCCAUGUGCUCGUCUUAUAAAGUACUAUCACGAAAGUGAUAGUACA [Sensor 3, v1 - 52] (puzzle: Sensor v3, turn-off variant 1): 52.1
- UGAAAGGUAGGAUAUACGAAGAAAAAGGGUAGAAUAAUAACACAUGAGGAUCACCCAUGUAGAAGGACCAAAGU [Mat - Exclusion 2 - Mod of my Tesla design - D10] (puzzle: Exclusion 2): 24.6
- AGUAGAUCUACGCUUGCGUGGAUCUGCAAUGCAAGUGUAACAUGAGGAUCACCCAUGUCCUCAUUUGCUCGUCUUAU [JL turnoff v2 99.03] (puzzle: Sensor v3, turn-off variant 2): 48.8
- AAGAAACAUGAGGAUCACCCAUGUGAGGAUAUGAAAAAGAAAAGAAAAUAAAGAAGAAUCAGAAGGCACAAAGG [Mat - Mod of Hog D3] (puzzle: Exclusion 1): 46.1

----------
Test system: MS2 coat protein
Protocol: apparent KD of MS2 coat protein; designed switch direction (-1 OFF switch, 1 ON switch): 1; higher = weaker reporter binding
Test Conditions: input ligand: none
Recorded apparent KD of MS2 coat protein split into classes band A (below 90 nM), band B (90 nM to below 500 nM), band C (500 nM or more)

- CCUUGUAGCGGAGGAUAUGGGCCUCACUCAGUCAAAGAGUGAGAAACAUGAGGAUCACCCAUGUCCCAGAAGGCCGCUGCAUGG [Ridizaer] (Eterna round: R96, puzzle: Same State NG 2): band A
- AAAAGAACCACAGGAUAUACACUCCUAGCGGCGGUAGAAGGGUGGAACAUGAGGAUCACCCAUGUACGUCUGGAAUCAGACUAA [Radianis] (Eterna round: R96, puzzle: Same State NG 1): band C
- GUAAAGAAUUAAGGAUAUUGAUUACAUAUGUUUAACAUGAGGAUCACCCAUGUGGGUUGCGGUAUCGAGAAGGUAAAAUAAUAG [Mat - same State NG 2 - JL mod - D86] (Eterna round: R96, puzzle: Same State NG 2): band B
- ACAUGAGAAUGAGGAUAUGUUGUACCUACAUGUGACAUGAGGAUCACCCAUGUGGUAAGUAUGAUACAGAAGGCAUAGAUAUGU [Equivalance 62 - Jieux - Same State NG 2] (Eterna round: R96, puzzle: Same State NG 2): band A
- CUGCACCGUGGAGGAUAUGGGCUGAGGCCAGGACAACCCUGGCCAACAUGAGGAUCACCCAUGUCCCAGAAGGCCACAGUGCUA [Zaenmaxe] (Eterna round: R96, puzzle: Same State NG 2): band B
- AUUCGUUUGAUAGGAUAUCACUUUACAUGAGGAUCACCCAUGUUCACCACGCUGGUCUCUUAUACUGAGAAGGAUCUUGAUGAC [JR_SSNG2_Sub009] (Eterna round: R96, puzzle: Same State NG 2): band A
- UAGGAGAGUAGAACAUGAGGAUCACCCAUGUAACCUCAUGUAUAGGAUAUGUUAAGAGUAGUAGAACAGAAGGAUAAGUAGGAU [Default title] (Eterna round: R96, puzzle: Same State NG 3): band C
- GAGUGGUAGGGAGGAUAUGCAUUGUUAUUAAAUGCAGAAGGUUUUAACAUGAGGAUCACCCAUGUAGGACUAUUCCUGUGUUUC [Parity 67 - Jieux - Same State NG 1] (Eterna round: R96, puzzle: Same State NG 1): band A
- UGGUACAUGGGAGGAUAUCUCAUGGAGACAUGAGGAUCACCCAUGUAGUUGGGCCGGAAACGGUGAGAGAAGGCCCAUGUACCU [JL SSNG1 3.71] (Eterna round: R96, puzzle: Same State NG 2): band B
- ACUCAGUACAAUUUAGAUCUACAUGAGGAUCACCCAUGUACUGAGGAUAUCAGCUCGUUUAGAGCUGAGAAGGCAGUUGUACUA [SSNG3/10-A3] (Eterna round: R96, puzzle: Same State NG 3): band B
- UUGCGGAAUUAAGGAUAUUGAGUACAUAUGUUUAACAUGAGGAUCACCCAUGUGGGUUGCGGUAUCGAGAAGGUAAAUUACUAC [salish99_SSNG2_r04_802] (Eterna round: R96, puzzle: Same State NG 2): band B
- AGUCCAGCCUAAGCUGGACAAAAGCAUGUACAUGAGGAUCACCCAUGUUCAUGUACAAGCUUUUUGCAAGUCAAAAU [Mat - hsa-mir-208a - Mod of JL - 79] (Eterna round: R96, puzzle: Sensor for hsa-mir-208a): band C
- UUGAAGAAUAUAGGAUAUUGAAUACAUAUGUUUAACAUGAGGAUCACCCAUGUGGGUUGCGGUAUCGAGAAGGAUAAUUACUAG [Mat - Same State NG 2 - JL mod - D12] (Eterna round: R96, puzzle: Same State NG 2): band B
- UUACAUGAGGAUCACCCAUGUCGCUGGUAAACUUCGAACCCGCAGGAUAUGUAUGCCACUUUACGACAGAAGGGCGGGUGCCUG [Eternabot solution 47] (Eterna round: R96, puzzle: Same State NG 3): band A
- AUUUUUAAUGCAGGAUAUGAUUAACAUGAGGAUCACCCAUGUGGUGUUGUGAGUAAGGAGAGUGAUCAGAAGGGCAUUUUUAUU [JMF's solution 84] (Eterna round: R96, puzzle: Same State NG 2): band C

----------
The sequences listed here are annotated with their apparent KD of MS2 coat protein.
System: MS2 coat protein
Protocol: apparent KD of MS2 coat protein; designed switch direction (-1 OFF switch, 1 ON switch): 1; higher = weaker reporter binding
Test Conditions: input ligand: FMN 200 uM
Value Kind: apparent KD of MS2 coat protein (nM)

- CGAUGUGAGUCAGGAUAUGGGUUAUCACUCCACAUGAGGAUCACCCAUGUAAAGAGGCCAAGGAGCCAGAAGGGACAUACAUCU [Zaorso] (Eterna round: R96, puzzle: Same State NG 2): 1520
- GGUAGGUUACUACCAGACAUGAGGAUCACCCAUGUAAAUGGGAAGGAUAUGGUACCGUUUCGGUACCAGAAGGUCCUAAAUGAG [JL SSNG3 1.47] (Eterna round: R96, puzzle: Same State NG 3): 301
- UUGAAGAAUAUAGGAUAUUGAAUACAUAUGUUUAACAUGAGGAUCACCCAUGUGGGUUGCGGUAUCGAGAAGGAUAAAUAAUAG [Mat - Same State NG 2 - JL mod - D13] (Eterna round: R96, puzzle: Same State NG 2): 196
- GCCGGCUGGUGAGGAUAUGGCACCUUAUUGGUGCCAGAAGGCAUGUCAAUUGACAUGAGGAUCACCCAUGUAUUAUAGUUGGCG [salish99_SSNG1_r04_605] (Eterna round: R96, puzzle: Same State NG 1): 414

----------
Tested on: MS2 coat protein
Protocol: apparent KD of MS2 coat protein; designed switch direction (-1 OFF switch, 1 ON switch): -1; higher = weaker reporter binding
Test Conditions: input ligand: none
Value Kind: apparent KD of MS2 coat protein

* CACAGGAGACGGAGAUCCAACAUGAGGAUCACCCAUGUCUCAAAAGCUUUUUGCUUGUCUUAUCCUCCUCUCUUGAC [Mat - Sensor, turn-off var - Eli Mod - D60] (Eterna round: R97, puzzle: Sensor, turn-off variant 1) | 28.1 nM
* UCUAGUUGGCAAGGAUAUCCUACAUUGUUCUGGCCCGGGCAUGCUACAUGAGGAUCACCCAUGUGGGAGAAGGUGCGUCAUUGC [Design 22] (Eterna round: R96, puzzle: Exclusion NG 2) | 82.1 nM
* CGCUACGAAGUCAGGAUAUCAGAACAAGAUAAAUAUGAGAAGGGACAUGAGGAUCACCCAUGUUCGGUGGUAGC [BmEX4 A.14] (Eterna round: R97, puzzle: Brourd's mod of Exclusion 4) | 21.1 nM
* CUUCAAGCACCAGAGCUCACACUUAUACCUGCUCUGGUGACAUGAGGAUCACCCAUGUUUUUUGCCCGUCUUAUCUU [Sensor v3, turn-off variant 2 (MOD of Leso v.2)] (Eterna round: R96, puzzle: Sensor v3, turn-off variant 2) | 250 nM
* GAGAAACAUGAGGAUCACCCAUGUGAGGAUAUGAGCACGCCGGUGACGGUGAUAAGAAUCAGAAGGCACAUUAA [Mat - Exclusion 1 - JL Mod - D34] (Eterna round: R97, puzzle: Exclusion 1) | 38.8 nM
* CAAUUCCGAGGAUAUACAUGAGGAUCACCCAUGUCGGGCCUCAGCGUUUAGCGCCUAAGUAGAAGGUGGGUUUC [JL Riri mod 4] (Eterna round: R96, puzzle: Exclusion 3) | 46.6 nM
* GAAAACGUAGGAUAUUAAUACUUAUACAUGAGGAUCACCCAUGUUUGGUGGGUUUAAGAAUGAGAAGGGCGAUGAA [EX5 #8] (Eterna round: R97, puzzle: Exclusion 5) | 717 nM
* GGAGCGGCAGGAUAUACAUGAGGAUCACCCAUGUAAAGAAGGGUAAGAAACCACCUCGGUAGAAGGGCCAGGAG [AK-MS2ROC-r4-exclusion3-10] (Eterna round: R97, puzzle: Exclusion 3) | 94.5 nM
* UAUUAGCAAGUGAGAUCCGACAUGAGGAUCACCCAUGUGCUCGUCUUAUAAGGUAAUAUGACAAAAGUCAUAUUACC [Elimod 5 - Jieux - Sensor, turn-off variant 1] (Eterna round: R97, puzzle: Sensor, turn-off variant 1) | 293 nM
